target: Interleukin-8 (Homo sapiens) (UniProt P10145); assay: inhibitors of NFkB activation in CF airway cells, SAR follow-up, KKLEB cells, panel, IL8 HTRF, NFkB-GFP (AID 651592); conditions: PAF/TNFa-induced NFkB-GFP / IL8 HTRF, IL8, TNFa-induced, run 6;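 note: immortalized cystic fibrosis airway epithelial KKLEB cells with an NF-kB GFP reporter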
Sequence (P10145 whole entry, looked up): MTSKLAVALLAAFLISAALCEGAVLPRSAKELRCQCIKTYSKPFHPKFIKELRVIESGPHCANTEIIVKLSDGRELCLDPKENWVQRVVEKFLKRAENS
pIC50: −log10 of the molar value.
measure: pIC50

# annotated cases, reported pIC50 shown
[
  {
    "entry smiles": "O=C(Nc1ccc(N2CCN(C(=O)c3ccccc3)CC2)cc1)c1cncc(Br)c1",
    "pIC50": "< 4.18"
  },
  {
    "entry smiles": "O=C(Nc1ccc(N2CCN(C(=O)c3ccccc3F)CC2)cc1)c1ccccc1",
    "pIC50": "< 4.18"
  },
  {
    "entry smiles": "O=C(Nc1ccc(N2CCN(C(=O)c3ccccc3Cl)CC2)cc1)c1ccccn1",
    "pIC50": "< 4.18"
  }
]

Continue with the compound presented below.
Req: GET /values?readout=pIC50&item= CCOc1ccc(NCc2cc3c(-c4ccc(F)cc4)nn(-c4ccccc4)c3[nH]c2=O)cc1
Resp: 4.83

###

Parameter: pIC50. Scope: all listed entries.
biological target: UniProt:P10145; assay: inhibitors of NFkB activation in CF airway cells, SAR follow-up, KKLEB cells, panel, IL8 HTRF, NFkB-GFP (AID 651592); conditions: PAF/TNFa-induced NFkB-GFP / IL8 HTRF, IL8, PAF-induced, run 1;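 note: immortalized cystic fibrosis airway epithelial KKLEB cells with an NF-kB GFP reporter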
pIC50: −log10 of the molar value.

Known results for compounds:
[
  {
    "entry smiles": "O=C(Nc1ccc(N2CCN(C(=O)c3ccc(F)cc3)CC2)cc1)c1ccccn1",
    "pIC50": "< 4.18"
  },
  {
    "entry smiles": "O=C(Nc1ccc(N2CCN(C(=O)c3ccccc3)CC2)cc1)c1cc(Br)cc(Br)c1",
    "pIC50": "< 4.18"
  },
  {
    "entry smiles": "O=C(Nc1ccc(N2CCN(C(=O)c3ccccc3F)CC2)cc1)c1cccc(Br)c1",
    "pIC50": "< 4.18"
  }
]

Req: Look up pIC50: CCOc1ccc(NCc2cc3c(-c4ccc(F)cc4)nn(-c4ccccc4)c3[nH]c2=O)cc1
Resp: 6.36

Req: What do you get for O=C(Nc1ccc(N2CCN(C(=O)c3ccccc3F)CC2)cc1)c1ccncc1 ?
Resp: < 4.18

###

target: UniProt P10145; assay: inhibitors of NFkB activation in CF airway cells, SAR follow-up, KKLEB cells, panel, IL8 HTRF, NFkB-GFP (AID 651592); settings: PAF/TNFa-induced NFkB-GFP / IL8 HTRF, IL8, TNFa-induced, run 6;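 note: immortalized cystic fibrosis airway epithelial KKLEB cells with an NF-kB GFP reporter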
Form field: IC50 (one value per entry).

[
  {
    "entry smiles": "O=C(Nc1ccc(N2CCN(C(=O)c3ccc(F)cc3)CC2)cc1)c1cccnc1",
    "measure": "IC50",
    "result": "> 66 µM"
  },
  {
    "entry smiles": "O=C(Nc1ccc(N2CCN(C(=O)c3ccccc3)CC2)cc1)c1ccncc1",
    "measure": "IC50",
    "result": "> 66 µM"
  },
  {
    "entry smiles": "O=C(Nc1ccc(N2CCN(C(=O)c3ccccc3Cl)CC2)cc1)c1ccccc1",
    "measure": "IC50",
    "result": "8.88 µM"
  },
  {
    "entry smiles": "O=C(Nc1ccc(N2CCN(C(=O)c3ccccc3Cl)CC2)cc1)c1cccc(Br)c1",
    "measure": "IC50",
    "result": "> 66 µM"
  },
  {
    "entry smiles": "O=C(Nc1ccc(N2CCN(C(=O)c3ccccc3Cl)CC2)cc1)c1cc(Br)cc(Br)c1",
    "measure": "IC50",
    "result": "> 66 µM"
  },
  {
    "entry smiles": "O=C(Nc1ccc(N2CCN(C(=O)c3ccccc3F)CC2)cc1)c1ccccn1",
    "measure": "IC50",
    "result": "> 66 µM"
  },
  {
    "entry smiles": "CCOc1ccc(NCc2cc3c(C(C)(C)C)nn(-c4ccc(Cl)cc4)c3[nH]c2=O)cc1",
    "measure": "IC50",
    "result": "> 66 µM"
  },
  {
    "entry smiles": "Cc1ccc(NCc2cc3c(C(C)(C)C)nn(-c4ccccc4)c3[nH]c2=O)cc1",
    "measure": "IC50",
    "result": "> 66 µM"
  },
  {
    "entry smiles": "O=C(Nc1ccc(N2CCN(C(=O)c3ccccc3)CC2)cc1)c1cccnc1",
    "measure": "IC50",
    "result": "> 66 µM"
  },
  {
    "entry smiles": "O=C(Nc1ccc(N2CCN(C(=O)c3ccc(F)cc3)CC2)cc1)c1ccncc1",
    "measure": "IC50",
    "result": "> 66 µM"
  }
]

Req: Give the reported IC50 for O=C(Nc1ccc(N2CCN(C(=O)c3ccc(F)cc3)CC2)cc1)c1ccccn1 (system: UniProt P10145).
Resp: > 66 µM

Req: Also O=C(Nc1ccc(N2CCN(C(=O)c3ccccc3Cl)CC2)cc1)c1cccnc1 , if possible.
Resp: > 66 µM

Req: Quick one: O=C(Nc1ccc(N2CCN(C(=O)c3ccccc3F)CC2)cc1)c1cc(Br)cc(Br)c1
Resp: > 66 µM

Req: Now give it for O=C(Nc1ccc(N2CCN(C(=O)c3ccc(F)cc3)CC2)cc1)c1cncc(Br)c1 too.
Resp: 25.4 µM

Req: And for O=C(Nc1ccc(N2CCN(C(=O)c3ccccc3F)CC2)cc1)c1cccnc1 ?
Resp: > 66 µM

Req: Query O=C(Nc1ccc(N2CCN(C(=O)c3ccccc3F)CC2)cc1)c1cccc(Br)c1 next
Resp: 6.25 µM

Req: Same lookup for O=C(Nc1ccc(N2CCN(C(=O)c3ccccc3Cl)CC2)cc1)c1ccncc1 , please.
Resp: > 66 µM

Req: Here is the next molecule: O=C(Nc1ccc(N2CCN(C(=O)c3ccccc3Cl)CC2)cc1)c1cncc(Br)c1
Resp: 14.3 µM

Req: Cool, now O=C(Nc1ccc(N2CCN(C(=O)c3ccccc3)CC2)cc1)c1cccc(Br)c1
Resp: 8.25 µM

Req: Request: O=C(Nc1ccc(N2CCN(C(=O)c3ccccc3)CC2)cc1)c1ccccc1
Resp: > 66 µM
